# method description: Cell toxicity
measured parameter: cell toxicity

Solved entries (count: 5):
compound: O=C(/C=C/c1ccc(O)cc1)c1ccccc1 [4-Hydroxychalcone]
cell toxicity: little or no
--
compound: CC(=O)/C=C/C1C(C)=CCCC1(C)C (stereo not drawn) [Alpha-lonone]
cell toxicity: little or no
--
compound: COc1ccc(/C=C/C=O)cc1 [Trans-4-methoxycinnamaldehyde]
cell toxicity: little or no
--
compound: C=C(C)[C@@H]1CCC2=CC(=O)C[C@@H](C)[C@]2(C)C1 [Nootkatone]
cell toxicity: little or no
--
compound: O=c1cc(-c2ccccc2)oc2ccccc12 [Flavone]
cell toxicity: little or no

Q: Given COC1=C(OC)C(=O)C(C)=CC1=O [Ubiquinone-O] , respond with its cell toxicity.
Result: little or no

Q: Please list cell toxicity recorded for the compound CCOc1ccc2c(c1)C(C)=CC(C)(C)N2 [Ethoxyquin]
Result: little or no

Q: Supply cell toxicity value. Item: CCCCOCc1ccc(O)c(OC)c1 [Vanillyl butyl ether]
Result: little or no

Q: Write down cell toxicity measured for item CC/C=C/C=C/C=O [Trans,trans-2,4-heptadienal]
Result: little or no

Q: Look up and state reported cell toxicity for CC(C)=CCC[C@](C)(O)C1CC=C(C)CC1 (some centres unmarked) [Bisabolol]
Result: little or no

Q: Return value of cell toxicity for input CCCCCCCCCCCCCCCC(=O)OC(CC(=O)O)C[N+](C)(C)C.[Cl-] (racemic) [DL-palmitoylcarnitine chloride] , no commentary.
Result: little or no

Q: // Input: CCCCCC/C=C\CCCCCCCC(=O)O [Palmitoleic acid] . Output its cell toxicity only.
Result: little or no

Q: Supply measured cell toxicity of CC/C=C\CC/C=C/CO [Trans-2,cis-6-nonadienol] in your reply.
Result: little or no

Q: Give the reported cell toxicity for this compound. c1ccc2c(Cc3c[nH]c4ccccc34)c[nH]c2c1 [3,3′-diindolylmethane]
Result: little or no

Q: Provide measured cell toxicity value, entry: O=c1c(-c2ccc(O)cc2)coc2cc(O)cc(O)c12 [Genistein]
Result: little or no

Q: Return value of cell toxicity for input CCCC/C=C/C=C/C=O [Trans,trans-2,4-nonadienal] , no commentary.
Result: little or no

Q: Provide one value: measured cell toxicity of C[C@H]1[C@H](C)CC[C@]2(C(=O)O)CC[C@]3(C)C(=CC[C@@H]4[C@@]5(C)C[C@@H](O)[C@H](O)[C@@](C)(CO)[C@@H]5CC[C@]43C)[C@H]12 [Asiatic acid]
Result: little or no

Q: Give a short answer stating reported cell toxicity for O=C(CCc1ccc(O)cc1)c1c(O)cc(O)cc1O [Phloretin] .
Result: little or no

Q: Identify the reported cell toxicity for the following entry. C[C@@H]1CC[C@H]2C(C)(C)[C@H]3C[C@@]12CC[C@@]3(C)O [(+)-cedrol]
Result: little or no

Q: Please give the documented cell toxicity of O=C(/C=C/c1ccccc1O)c1ccc(O)cc1O [2,2′,4′-trihydroxy-chalcone]
Result: little or no

Reference for the values: patent US10548935B2
